tested on: MCF7 breast; test: NCI-60 one-dose screen, 48 h (100 = growth as untreated, 0 = no growth, -100 = all killed); details: 10 µM unless noted
This is part of a sample that, as a whole, favours compounds with a hit. Of some 83,000 tested, about 20% had one in any assay.
readout-kind: growth (%)
Give bare numbers, in %.

Reference set, count: 10
{"compound": "COC1=CC(=O)C[C@@H](C)[C@]12Oc1c(Cl)c(OC)cc(OC)c1C2=O", "value-units": "%", "measured": 85.2}
{"compound": "CC1=CN2C(=O)C3C4=C(CCCC4)SC3N=C2CN1c1c(C)cccc1C (stereo not drawn)", "value-units": "%", "measured": 112}
{"compound": "CCOC(CN=Cc1cc(C)c2[nH]c3ccccc3c2c1C)OCC", "value-units": "%", "measured": 88.9}
{"compound": "Cc1ccc(Cc2cnc(NC(=O)c3ccc4noc(-c5ccccc5)c4c3)s2)cc1", "value-units": "%", "measured": 69.8}
{"compound": "O=C1OC(c2nc3ccccc3s2)=C/C1=C\\c1ccc(O)cc1", "value-units": "%", "measured": 100}
{"compound": "CC1OC(O[C@H]2/C=C/C=C/C=C/C=C/C=C/C=C/C=C/[C@H](C)[C@@H](O)[C@@H](C)[C@H](C)OC(=O)CC(O)CC(O)CCC(O)C(O)CC(O)C[C@]3(O)C[C@H](O)C(C(=O)O)C(C2)O3)C(O)[C@H](N)C1O (stereo partly drawn)", "value-units": "%", "measured": 28.8}
{"compound": "CCCCCCN(CCCCCC)c1ccc(/C=C2/SC(=O)N(c3nc(N4CCCC4)nc(N4CCCC4)n3)C2=O)c(C)c1", "value-units": "%", "measured": 54.8}
{"compound": "COc1cc(-c2nn(-c3ccccc3)cc2-c2ccnc(NCCNS(=O)(=O)c3ccc(Cl)cc3)n2)ccc1Cl", "value-units": "%", "measured": 18}
{"compound": "COc1cc(C2NC(=O)c3ccccc3N2)ccc1OCCCCCOc1c(OC)cc(C2=NOC(c3cc(OC)c(OC)c(OC)c3)C2)cc1OC (stereo not drawn)", "value-units": "%", "measured": 32.3}
{"compound": "COc1ccc(-c2nc(SCC(=O)Nc3nc(-c4ccccc4)cs3)[nH]c(=O)c2C#N)cc1", "value-units": "%", "measured": 96.4}

State recorded growth for all listed compounds.
1. Cc1ccc(-n2nc3c(c(C#N)c2=O)CC(c2ccccc2Cl)C([N+](=O)[O-])=C3O)cc1 (stereo not drawn)
2. Cc1ccc2nc(C)c(-c3nnc(SCc4ccc(C#N)cc4)o3)n2c1

Reply:
1: 94; 2: 77.8

FYI, the data here is from PubChem BioAssay (NCI).
